Tested on: Keratinocytes (HaCaT)
Experiment notes: Safety, MTT test in keratinocytes
Format: cell-based
Run parameters: 100 µM; 48 hours
Measurement kind: Keratinocytes (HaCaT) MTT

Sample answers from the record:
1) O=C(/C=C/c1ccccc1)NCCCCCO    101.35±2.17 % of solvent control
2) O=C(/C=C/c1ccc(Cl)cc1)NCCO    100.47±3.65 % of solvent control
3) O=C(/C=C/c1ccc(Cl)cc1)NCCCO    102.03±1.45 % of solvent control
4) Cc1ccc(/C=C/C(=O)NCCCCCO)cc1    101.11±2.03 % of solvent control

Alright, here's another compound for you.
Give the reported Keratinocytes (HaCaT) MTT for O=C(/C=C/c1ccc(Cl)cc1)NCCCCCO (system: Keratinocytes (HaCaT)).
101.68±3.45 % of solvent control

Reference source for all entries: patent EP4324461A1
